Ref: patent US7728146B2

LogBB overview
Assay: Blood-brain distribution / LogBB
Type: in vivo
Conditions: Animal No. 4; male Wistar rats, bolus plus 60 min continuous i.v. infusion
Protocol: Male Wistar rats (N=20, 5 per Group; Crl:WI) with a body weight ranging between 300 and 350 g were purchased from Charles River Laboratories (Sulzfeld, Germany). […] In plasma samples and brain tissues concentrations of compounds were measured using the aforementioned LC-MS methods.
observation_type: LogBB

>>> value_observed("NCc1c(-c2ccc(Cl)cc2Cl)ncn1Cc1ccsc1 [Example 130b]")
"−0.12"
>>> value_observed("NCc1c(-c2ccc(Cl)cc2Cl)ncn1Cc1cccnc1 [Example 121b]")
"−0.91"
>>> value_observed("NCc1c(-c2ccc(Cl)cc2Cl)ncn1Cc1ccccn1 [Example 39b]")
"−0.38"
>>> value_observed("NCc1c(-c2ccc(Cl)cc2Cl)ncn1Cc1ccccc1 [Example 24b]")
"−0.34"

* * *

AUC(0-t) overview
Assay: Bioavailability studies (pharmacokinetics after oral and intraarterial administration)
Assay type: in vivo, rat
Conditions: Wistar (Crl:WI), rat, plasma; male Wistar rats, intraarterial 3 mg/kg, hydrochloride salt, Mean ± SD; N = 4-6
Description: Male Wistar rats (N=25; Crl:WI) with a body weight ranging between 300 and 350 g were purchased from Harlan Winkelmann GmbH (Borchen, Germany). All studycompounds were used in the form of the hydrochloride salt. […] Plasma levels of the DP IV inhibitors were determined by measurement of plasma DP IV activity under standardized conditions using Gly-Pro-pNA as substrate. […] F (in %) was calculated from the ratio of observed AUC upon oral route of administration to the AUC upon intraarterial administration.
observation_type: AUC(0-t)

>>> value_observed("NCc1c(-c2ccc(Cl)cc2Cl)ncn1Cc1ccccn1 [Example 39b]")
"330 ng·h/mL"
>>> value_observed("NCc1c(-c2ccc(Cl)cc2Cl)ncn1Cc1ccsc1 [Example 130b]")
"1680 ng·h/mL"
>>> value_observed("NCc1c(-c2ccc(Cl)cc2Cl)ncn1Cc1ccccc1 [Example 24b]")
"510 ng·h/mL"
>>> value_observed("NCc1c(-c2ccc(Cl)cc2Cl)ncn1Cc1cccnc1 [Example 121b]")
"440 ng·h/mL"

* * *

LogBB overview
test: Blood-brain distribution / LogBB; format: in vivo; conditions: Animal No. 3; male Wistar rats, bolus plus 60 min continuous i.v. infusion
observation_type: LogBB

>>> value_observed("NCc1c(-c2ccc(Cl)cc2Cl)ncn1Cc1ccccc1 [Example 24b]")
"−0.26"
>>> value_observed("NCc1c(-c2ccc(Cl)cc2Cl)ncn1Cc1ccccn1 [Example 39b]")
"−0.53"
>>> value_observed("NCc1c(-c2ccc(Cl)cc2Cl)ncn1Cc1ccsc1 [Example 130b]")
"−1.03"
>>> value_observed("NCc1c(-c2ccc(Cl)cc2Cl)ncn1Cc1cccnc1 [Example 121b]")
"−0.70"

* * *

pIC50 overview
Molecular target: DP IV (Homo sapiens)
Sequence (P27487 whole entry): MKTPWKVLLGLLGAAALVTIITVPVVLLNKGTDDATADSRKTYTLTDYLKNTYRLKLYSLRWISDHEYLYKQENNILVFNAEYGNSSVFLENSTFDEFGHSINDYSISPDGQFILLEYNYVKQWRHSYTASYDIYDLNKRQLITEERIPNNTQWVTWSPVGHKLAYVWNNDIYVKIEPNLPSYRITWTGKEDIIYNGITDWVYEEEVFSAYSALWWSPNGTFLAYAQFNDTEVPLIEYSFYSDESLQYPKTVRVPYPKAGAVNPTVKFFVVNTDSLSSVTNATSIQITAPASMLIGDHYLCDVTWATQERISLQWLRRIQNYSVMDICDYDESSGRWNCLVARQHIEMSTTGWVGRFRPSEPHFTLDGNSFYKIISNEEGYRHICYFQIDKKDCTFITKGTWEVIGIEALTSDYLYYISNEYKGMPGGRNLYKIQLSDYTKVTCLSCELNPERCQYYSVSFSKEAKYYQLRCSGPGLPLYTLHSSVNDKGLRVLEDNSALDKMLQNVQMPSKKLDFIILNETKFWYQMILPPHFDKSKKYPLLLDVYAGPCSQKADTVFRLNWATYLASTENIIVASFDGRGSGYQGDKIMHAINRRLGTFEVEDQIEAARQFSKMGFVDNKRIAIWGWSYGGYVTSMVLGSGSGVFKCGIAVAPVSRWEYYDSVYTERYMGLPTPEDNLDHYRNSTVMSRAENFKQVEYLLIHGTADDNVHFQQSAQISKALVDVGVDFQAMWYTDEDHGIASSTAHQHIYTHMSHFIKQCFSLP
Test: DP IV inhibition IC50, parallel-synthesis compounds tested directly following synthesis (without purification)
Format: biochemical
Set-up: IC50 DP4; other: tested directly following parallel synthesis, without purification; compounds of formula (Ib) from parallel synthesis, tested directly following synthesis
Conditions: tested directly following parallel synthesis, without purification; read-out: IC50 DP4
Source text: Compounds were immediately tested regarding their activity as DP IV inhibitors. Substances are screened for inhibition of dipeptidyl peptidase (DP IV) by their ability to inhibit the hydrolysis of the DP IV specific substrate Glycyl-Prolyl-4-Nitroanilide (Gly-Pro-pNA). […] The method was automated using a Tecan Genesis Freedom liquid handler and a Genius Pro (Tecan) microplate reader. […] After short mixing (20 s) the release of 4-Nitroanilin (pNA) is monitored at 405 nm for 30 cycles (approx. 18 min). […]
pIC50: −log10 of the molar value.
observation_type: pIC50

>>> value_observed("NCc1c(-c2ccc(Cl)cc2Cl)ncn1Cc1cccs1 [Example 32a]")
7.00
>>> value_observed("NCc1c(-c2ccc(F)cc2F)ncn1Cc1ccccc1OC(F)(F)F [Example 84a]")
5.04
>>> value_observed("NCc1c(-c2ccc(Cl)cc2Cl)ncn1Cc1cc(Br)ccc1F [Example 44a]")
4.51
>>> value_observed("COc1cccc(Cn2cnc(-c3ccc(F)cc3Cl)c2CN)c1")
4.79
>>> value_observed("NCc1c(-c2ccc(F)cc2Cl)ncn1Cc1ccc(Cl)cc1 [Example 22a]")
4.42
>>> value_observed("NCc1c(-c2ccc(F)cc2Cl)ncn1Cc1ccc(F)c(F)c1 [Example 17a]")
4.72
>>> value_observed("Cc1ccc(Cn2cnc(-c3ccc(F)cc3Cl)c2CN)o1")
4.46
>>> value_observed("Cc1ccccc1Cn1cnc(-c2ccc(F)cc2Cl)c1CN [Example 14a]")
4.70
>>> value_observed("NCc1c(-c2ccc(F)cc2F)ncn1Cc1ccc(F)cc1F [Example 76a]")
4.39
>>> value_observed("NCc1c(-c2ccc(Cl)cc2Cl)ncn1Cc1ccco1 [Example 33a]")
7.00
>>> value_observed("NCc1c(-c2ccc(Cl)cc2Cl)ncn1Cc1ccccc1 [Example 47a]")
7.00
>>> value_observed("NCc1c(-c2ccc(Cl)cc2Cl)ncn1Cc1c(F)cccc1Cl [Example 45a]")
5.72
>>> value_observed("NCc1c(-c2ccc(F)cc2Cl)ncn1Cc1ccc(Cl)c(Cl)c1 [Example 25a]")
4.48
>>> value_observed("COc1cccc(Cn2cnc(-c3ccc(Cl)cc3Cl)c2CN)c1 [Example 41a]")
7.00
>>> value_observed("NCc1c(-c2ccc(F)cc2Cl)ncn1Cc1ccc(F)cc1F")
4.57
>>> value_observed("CCOc1ccccc1Cn1cnc(-c2ccc(F)cc2F)c1CN [Example 82a]")
4.84
>>> value_observed("NCc1c(-c2ccc(F)cc2F)ncn1Cc1ccc2c(c1)OCO2 [Example 81a]")
4.33
>>> value_observed("NCc1c(-c2ccc(F)cc2Cl)ncn1Cc1ccc(F)cc1Cl [Example 29a]")
4.50
>>> value_observed("NCc1c(-c2ccc(Cl)cc2Cl)ncn1Cc1ccccc1Cl [Example 34a]")
6.00

* * *

target: UniProt:P27487; test: Ki and inhibition type, DP IV; type: biochemical; conditions: compounds obtained by preparative synthesis
Checkbox rule: Ki lower than 20 nM = class 1; Ki not lower than 20 nM = class 0.

>>> group_label("COc1cccc(Cn2cnc(-c3ccc(Cl)cc3Cl)c2CN)c1 [Example 59b]")
"class 1"
>>> group_label("NCc1c(-c2ccc(Cl)cc2Cl)ncn1Cc1ccccc1 [Example 24b]")
"class 1"
>>> group_label("CC(C)(C)Cn1cnc(-c2ccc(Cl)cc2Cl)c1CN [Example 11b]")
"class 0"
>>> group_label("NCc1c(-c2ccc(Cl)cc2Cl)ncn1CCCn1ccnc1 [Example 104b]")
"class 0"
>>> group_label("NCc1c(-c2ccc(Cl)cc2Cl)ncn1Cc1ccccn1 [Example 39b]")
"class 1"
>>> group_label("NCc1c(-c2ccc(Cl)cc2Cl)ncn1Cc1ccc2c(c1)OCO2 [Example 125b]")
"class 0"
>>> group_label("CCOc1ccccc1Cn1cnc(-c2ccc(Cl)cc2Cl)c1CN [Example 128b]")
"class 1"
>>> group_label("NCc1c(-c2ccc(Cl)cc2Cl)ncn1Cc1ccsc1 [Example 130b]")
"class 1"
>>> group_label("CC(C)(C)CCn1cnc(-c2ccc(Cl)cc2Cl)c1CN [Example 23b]")
"class 0"
>>> group_label("NCc1c(-c2ccc(Cl)cc2Cl)ncn1Cc1ccccc1F [Example 112b]")
"class 1"

* * *

assay: Bioavailability studies (pharmacokinetics after oral and intraarterial administration); type: in vivo, rat; conditions: male Wistar rats, oral 3 mg/kg, hydrochloride salt, Mean ± SD; N = 5
AUC/Dose overview
observation_type: AUC/Dose (kg·µg·h/mL/mg)

>>> value_observed("NCc1c(-c2ccc(Cl)cc2Cl)ncn1Cc1ccccn1 [Example 39b]")
0.10
>>> value_observed("NCc1c(-c2ccc(Cl)cc2Cl)ncn1Cc1ccccc1 [Example 24b]")
0.22
>>> value_observed("NCc1c(-c2ccc(Cl)cc2Cl)ncn1Cc1ccsc1 [Example 130b]")
0.78
>>> value_observed("NCc1c(-c2ccc(Cl)cc2Cl)ncn1Cc1cccnc1 [Example 121b]")
0.12

* * *

test: Bioavailability studies (pharmacokinetics after oral and intraarterial administration); assay type: in vivo, rat; conditions: Wistar (Crl:WI), rat, plasma; male Wistar rats, 3 mg/kg i.a., cross-over design; read-out: Mean AUC i.a.
AUC overview
observation_type: AUC (ng·h/mL)

>>> value_observed("NCc1c(-c2ccc(Cl)cc2Cl)ncn1Cc1ccccn1 [Example 39b]")
330
>>> value_observed("NCc1c(-c2ccc(Cl)cc2Cl)ncn1Cc1cccnc1 [Example 121b]")
440
>>> value_observed("NCc1c(-c2ccc(Cl)cc2Cl)ncn1Cc1ccccc1 [Example 24b]")
510
>>> value_observed("NCc1c(-c2ccc(Cl)cc2Cl)ncn1Cc1ccsc1 [Example 130b]")
1680

* * *

system: liver cell carcinoma cell line Hep-G2; test: Cytotoxicity screening and LD50 determination on Hep-G2 (LDH, CytoTox-One); assay type: cell-based; conditions: 100 μM, 24 h, LDH of lysed cells, untreated control = 100%
observation_type: Viability 100 μM (%) HEP-G2

>>> value_observed("CC(C)(C)Cn1cnc(-c2ccc(Cl)cc2Cl)c1CN [Example 11b]")
113.1
>>> value_observed("COc1ccccc1Cn1cnc(-c2ccc(Cl)cc2Cl)c1CN [Example 120b]")
108.9
>>> value_observed("NCc1c(-c2ccc(Cl)cc2Cl)ncn1CCc1ccccc1Cl [Example 21b]")
9.8
>>> value_observed("NCc1c(-c2ccc(Cl)cc2Cl)ncn1Cc1ccccn1 [Example 39b]")
115.7
>>> value_observed("COc1cccc(Cn2cnc(-c3ccc(Cl)cc3Cl)c2CN)c1 [Example 59b]")
116.3
>>> value_observed("NCc1c(-c2ccc(Cl)cc2Cl)ncn1Cc1cccnc1 [Example 121b]")
104.0
>>> value_observed("CC(C)(C)CCn1cnc(-c2ccc(Cl)cc2Cl)c1CN [Example 23b]")
98.6
>>> value_observed("NCc1c(-c2ccc(Cl)cc2Cl)ncn1C(CO)c1ccccc1 (stereo not shown) [Example 126b]")
118.8
>>> value_observed("NCc1c(-c2ccc(Cl)cc2Cl)ncn1CCCn1ccnc1 [Example 104b]")
104.1
>>> value_observed("NCc1c(-c2ccc(Cl)cc2Cl)ncn1Cc1ccccc1 [Example 24b]")
119.2
